Recorded IC50 values for a group of compounds are listed next.
Target: MAGL (Mus musculus)
Construct: Proteomes (mouse brain membrane fraction or cell lysates)
Sequence (O35678 whole entry): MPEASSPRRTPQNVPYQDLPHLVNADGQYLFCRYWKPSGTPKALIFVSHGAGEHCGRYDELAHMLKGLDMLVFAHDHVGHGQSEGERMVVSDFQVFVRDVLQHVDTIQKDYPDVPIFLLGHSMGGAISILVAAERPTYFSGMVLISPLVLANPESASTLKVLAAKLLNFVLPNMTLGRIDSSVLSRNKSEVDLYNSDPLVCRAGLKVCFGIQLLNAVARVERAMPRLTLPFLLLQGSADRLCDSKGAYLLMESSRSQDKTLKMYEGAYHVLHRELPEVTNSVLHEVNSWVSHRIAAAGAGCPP
Assay: In vitro competitive activity-based protein profiling (mouse), MAGL gel band
Details: mouse

Worked set:
{"compound": "CC(=O)Nc1ccn(C(=O)N2CCC3(CCCN3Cc3ccc(C(F)(F)F)cc3N3CCCC3)CC2)n1", "observed_measurement": "≤ 100 nM"}
{"compound": "CC(=O)Nc1ccn(C(=O)N2CCC3(CCCN3Cc3ccc(Cl)cc3N3CCN(S(C)(=O)=O)CC3)CC2)n1", "observed_measurement": "100 to 1000 nM"}

Using known records, supply IC50 for "CC(=O)Nc1ccn(C(=O)N2CCC3(CCCN3Cc3ccc(Cl)cc3N3CCC4(CCOCC4)C3)CC2)n1"
≤ 100 nM

In one line, give reported IC50 of the entry "CC(=O)Nc1ccn(C(=O)N2CCN(Cc3ccc(C(F)(F)F)cc3N3CCC4(CC3)CCN(S(C)(=O)=O)C4)CC2)n1" .
≤ 100 nM

Hello, please tell me recorded IC50 for this one: CS(=O)(=O)Nc1ccn(C(=O)N2CCN(Cc3ccc(Cl)c(N4CC5COCC5C4)c3)CC2)n1 (stereo not shown)
≤ 100 nM

Supply recorded IC50 for "CC(C)C(=O)Nc1ccn(C(=O)N2CCN(Cc3ccc(C(F)(F)F)cc3N3CCCC3)CC2)n1" here.
100 to 1000 nM

Entry CC(=O)Nc1ccn(C(=O)N2CCN(Cc3ccc(C(F)(F)F)cc3N3CC4COCC4C3)CC2)n1 (stereo not shown) needs its IC50 filled in; supply it.
≤ 100 nM

The measurements presented in this section are drawn from patent US10519134B2.
